# maps each entry to its glass transition temperature

{"molecule": "*CC(*)C(=O)Oc1ccccc1C(=O)OCC (repeat unit)", "glass transition temperature [°C]": 30.00}
{"molecule": "*Cc1ccccc1C[Si](*)(C)C (repeat unit)", "glass transition temperature [°C]": 75.00}
{"molecule": "*c1ccc(OCCN(CCOc2ccc(-c3nc4ccc(Oc5ccc6nc(*)c(-c7ccccc7)nc6c5)cc4nc3-c3ccccc3)cc2)c2ccc(/C=C/c3ccc([N+](=O)[O-])cc3)cc2)cc1 (repeat unit)", "glass transition temperature [°C]": 201.00}
{"molecule": "*Cc1cccc(CNC(=O)c2ccccc2-c2ccccc2C(=O)N*)c1 (repeat unit)", "glass transition temperature [°C]": 159.00}
{"molecule": "*CC(c1ccccn1)C(c1ccccc1)C(*)c1ccccn1 (repeat unit)", "glass transition temperature [°C]": 150.00}
{"molecule": "*CC(*)C(=O)OCCCCCCCCCCCn1c2ccccc2c2ccccc21 (repeat unit)", "glass transition temperature [°C]": 15.00}
{"molecule": "*C(=O)c1ccc2nc(-c3ccc(-c4cnc5cc(*)ccc5n4)cc3)cnc2c1 (repeat unit)", "glass transition temperature [°C]": 318.00}
{"molecule": "*c1ccc2c(c1)C(CCCCCC)(CCCCCC)c1cc(-c3cc(OCc4ccccc4)c(*)cc3OCc3ccccc3)ccc1-2 (repeat unit)", "glass transition temperature [°C]": 73.00}
{"molecule": "*Oc1ccc(Oc2ccc(NC(=O)c3ccc(Oc4ccc(Oc5ccc(C(=O)Nc6ccc(*)cc6)cc5)cc4-c4ccccc4)cc3)cc2)cc1-c1ccccc1 (repeat unit)", "glass transition temperature [°C]": 200.50}
{"molecule": "*CC(F)(F)C(F)(F)C(F)(F)COC(=O)c1ccc(OCCCCC)c(C(=O)O*)c1 (repeat unit)", "glass transition temperature [°C]": 9.00}
{"molecule": "*c1ccc2c(c1)C(=O)N(c1cccc(Oc3ccc(S(=O)(=O)c4ccc(Oc5cccc(N6C(=O)c7ccc(C(*)(C(F)(F)F)C(F)(F)F)cc7C6=O)c5)cc4)cc3)c1)C2=O (repeat unit)", "glass transition temperature [°C]": 209.50}
{"molecule": "*CCCNC(=O)C(NC(=O)C(Cc1ccccc1)NC(=O)CCCCCCCCC(=O)NC(Cc1ccccc1)C(=O)NC(C(=O)NCCCOCCOCCO*)C(C)C)C(C)C (repeat unit)", "glass transition temperature [°C]": 66.00}
{"molecule": "*OC(COC(=O)c1cccc(-c2ccc(C(*)=O)cc2)c1)COc1ccc(/N=N/c2ccc(C#N)cc2)cc1 (repeat unit)", "glass transition temperature [°C]": 135.00}
{"molecule": "*CC(*)(C)C(=O)OCCF (repeat unit)", "glass transition temperature [°C]": 90.00}
{"molecule": "*CCCCCCCCOc1c(OC)cc(/C=C/c2ccc(/C=C/c3cc(OC)c(O*)c(OC)c3)cc2)cc1OC (repeat unit)", "glass transition temperature [°C]": 69.40}

====

Could you please mark MET for values of glass transition temperature below 50 °C and NOT MET for values at or above it?

{"compound": "*CC(*)(C)C(=O)Oc1ccc(OCc2ccccc2)cc1 (repeat unit)", "class.assignment": "NOT MET"}
{"compound": "*CCCC(C)CN1C(=O)c2ccc(C(=O)Oc3ccc4cc(OC(=O)c5ccc6c(c5)C(=O)N(*)C6=O)ccc4c3)cc2C1=O (repeat unit)", "class.assignment": "NOT MET"}
{"compound": "*Oc1ccc(C2(c3ccc(OC(=O)CCC(*)=O)cc3)c3ccccc3-c3ccccc32)cc1 (repeat unit)", "class.assignment": "NOT MET"}
{"compound": "*CCCCCCOC(=O)CCCCC(=O)O* (repeat unit)", "class.assignment": "MET"}
{"compound": "*/C=C/c1cccc(/C=C/[Si](C)(CCC(F)(F)F)c2ccc([Si](*)(C)CCC(F)(F)F)cc2)c1 (repeat unit)", "class.assignment": "MET"}
{"compound": "*Nc1ccc(NC(=O)c2cc(-c3ccc(C(=O)OC)c(C(*)=O)c3)ccc2C(=O)OC)cc1 (repeat unit)", "class.assignment": "NOT MET"}
{"compound": "*CC(*)c1ccccc1COCCc1ccccc1 (repeat unit)", "class.assignment": "NOT MET"}
{"compound": "*Oc1ccc(/C=C2\\CCC/C(=C\\c3ccc(OC(=O)CCCCCCCCC(*)=O)c(OC)c3)C2=O)cc1OC (repeat unit)", "class.assignment": "MET"}
